pIC50: −log10 of the molar value.
The compounds below have reported pIC50 for Acetylcholinesterase (Homo sapiens).

Worked examples follow.
molecular string: CC1=CC(=O)[C@@](C)(O)C(=O)/C1=C\Nc1ccc(Oc2ccc(C)cc2)cc1
target under test: Acetylcholinesterase (Homo sapiens)
Sequence (P22303 whole entry): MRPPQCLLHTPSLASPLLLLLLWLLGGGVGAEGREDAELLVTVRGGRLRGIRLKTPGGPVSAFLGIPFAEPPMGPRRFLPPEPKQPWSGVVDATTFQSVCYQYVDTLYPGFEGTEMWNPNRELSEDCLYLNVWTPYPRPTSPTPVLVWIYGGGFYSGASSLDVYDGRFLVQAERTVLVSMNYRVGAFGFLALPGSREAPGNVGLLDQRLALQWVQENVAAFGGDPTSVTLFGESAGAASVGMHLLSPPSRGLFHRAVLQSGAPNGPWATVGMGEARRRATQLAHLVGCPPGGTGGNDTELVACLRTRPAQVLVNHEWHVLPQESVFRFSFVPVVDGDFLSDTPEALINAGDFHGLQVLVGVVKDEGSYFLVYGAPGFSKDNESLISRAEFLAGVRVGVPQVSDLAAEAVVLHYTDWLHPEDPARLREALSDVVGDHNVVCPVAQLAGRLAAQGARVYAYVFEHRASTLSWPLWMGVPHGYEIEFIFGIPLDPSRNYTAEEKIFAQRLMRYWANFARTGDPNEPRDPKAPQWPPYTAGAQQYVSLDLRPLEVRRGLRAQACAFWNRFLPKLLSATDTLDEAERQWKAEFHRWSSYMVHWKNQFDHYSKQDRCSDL
pIC50: < 4.00
//
molecular string: CC1=CC(=O)[C@@](C)(O)C(=O)/C1=C\Nc1ccc(Oc2ccc(C#N)cc2)cc1
target under test: Acetylcholinesterase (Homo sapiens)
pIC50: 5.33
//
molecular string: CC1=CC(=O)[C@](C)(O)C(=O)/C1=C\Nc1ccc(Cc2ccccc2)cc1
target under test: Acetylcholinesterase (Homo sapiens)
pIC50: 5.35
//
molecular string: CC1=CC(=O)[C@@](C)(O)C(=O)/C1=C\Nc1ccccc1
target under test: Acetylcholinesterase (Homo sapiens)
pIC50: < 4.00
//
molecular string: CC1=CC(=O)[C@](C)(O)C(=O)/C1=C\Nc1ccc(Oc2ccc([N+](=O)[O-])cc2)cc1
target under test: Acetylcholinesterase (Homo sapiens)
pIC50: 4.17

Request: I'd like to know its pIC50. The compound in question is CC1=CC(=O)[C@@](C)(O)C(=O)/C1=C\Nc1ccc(Oc2ccc([N+](=O)[O-])cc2)cc1
Result: < 4.00

Request: // repeat for CC1=CC(=O)[C@](C)(O)C(=O)/C1=C\Nc1ccc(Oc2ccc(C)cc2)cc1 and report
Result: < 4.00

Request: // repeat for CC1=CC(=O)[C@](C)(O)C(=O)/C1=C\Nc1ccccc1 and report
Result: < 4.00

Request: // repeat for CC1=CC(=O)[C@@](C)(O)C(=O)/C1=C\Nc1ccc(Cc2ccccc2)cc1 and report
Result: < 4.00

Request: // repeat for CC1=CC(=O)[C@@](C)(O)C(=O)/C1=C\Nc1ccc(Oc2ccc(Cl)cc2)cc1 and report
Result: < 4.00

Request: // repeat for CC1=CC(=O)[C@](C)(O)C(=O)/C1=C\Nc1ccc(Oc2cccc(F)c2)cc1 and report
Result: < 4.00

====

Test: Cytotoxicity against human L02 cells assessed as inhibition of cell growth by SRB assay
Type: toxicity, cell-based
measured attribute: IC50

Worked examples follow.
molecular string: CC1=CC(=O)[C@](C)(O)C(=O)/C1=C\Nc1ccc(Oc2cccc(F)c2)cc1
IC50: > 30 µM
//
molecular string: CC1=CC(=O)[C@](C)(O)C(=O)/C1=C\Nc1ccc(Oc2ccc(C)cc2)cc1
IC50: 19.8 µM
//
molecular string: CC1=CC(=O)[C@@](C)(O)C(=O)/C1=C\Nc1ccccc1
IC50: > 30 µM

Request: I'd like to know its IC50. The compound in question is CC1=CC(=O)[C@](C)(O)C(=O)/C1=C\Nc1ccc(Oc2ccc(C#N)cc2)cc1
Result: > 30 µM

Request: // repeat for CC1=CC(=O)[C@@](C)(O)C(=O)/C1=C\Nc1ccc(Oc2ccc(Cl)cc2)cc1 and report
Result: > 30 µM

Request: // repeat for CC1=CC(=O)[C@](C)(O)C(=O)/C1=C\Nc1ccccc1 and report
Result: > 30 µM

Request: // repeat for CC1=CC(=O)[C@](C)(O)C(=O)/C1=C\Nc1ccc(Oc2ccc([N+](=O)[O-])cc2)cc1 and report
Result: > 30 µM

Request: // repeat for CC1=CC(=O)[C@@](C)(O)C(=O)/C1=C\Nc1ccc(Cc2ccccc2)cc1 and report
Result: > 30 µM

====

The compounds below have reported pIC50 for Acetylcholinesterase (Homo sapiens, UniProt P22303).
pIC50: −log10 of the molar value.

Worked examples follow.
molecular string: CC1=CC(=O)[C@](C)(O)C(=O)/C1=C\Nc1ccc(Oc2ccc(Cl)cc2)cc1
measured attribute: pIC50
result: < 4.00

molecular string: CC1=CC(=O)[C@@](C)(O)C(=O)/C1=C\Nc1ccc(Oc2cccc(F)c2)cc1
measured attribute: pIC50
result: < 4.00

Okay, next one:
Request: I'd like to know its pIC50. The compound in question is CC1=CC(=O)[C@](C)(O)C(=O)/C1=C\Nc1ccc(Oc2ccc(C#N)cc2)cc1
Result: 4.61

====

Assay: Cytotoxicity against human L02 cells assessed as inhibition of cell growth by SRB assay
Assay type: toxicity, cell-based
// reported IC50 per item

Request: I'd like to know its IC50. The compound in question is CC1=CC(=O)[C@](C)(O)C(=O)/C1=C\Nc1ccc(Oc2ccc(Cl)cc2)cc1
Result: 17 µM

====

// reported IC50 per item
Assay: Cytotoxicity against human L02 cells assessed as inhibition of cell growth by SRB assay
Format: toxicity, cell-based

Worked examples follow.
molecular string: CC1=CC(=O)[C@@](C)(O)C(=O)/C1=C\Nc1ccc(Oc2ccc([N+](=O)[O-])cc2)cc1
IC50: > 30 µM
//
molecular string: CC1=CC(=O)[C@@](C)(O)C(=O)/C1=C\Nc1ccc(Oc2ccc(C#N)cc2)cc1
IC50: > 30 µM
//
molecular string: CC1=CC(=O)[C@@](C)(O)C(=O)/C1=C\Nc1ccc(Oc2ccc(C)cc2)cc1
IC50: > 30 µM
//
molecular string: CC1=CC(=O)[C@](C)(O)C(=O)/C1=C\Nc1ccc(Cc2ccccc2)cc1
IC50: 18.6 µM

Request: I'd like to know its IC50. The molecule in question is CC1=CC(=O)[C@@](C)(O)C(=O)/C1=C\Nc1ccc(Oc2cccc(F)c2)cc1
Result: > 30 µM
